Assay: Solubility in solutions of basic substances (Experimental Example 7)
Assay type: physicochemical
Conditions: pH 8.56; 5% trishydroxy methylamino methane; pH of solvent 8.56
recorded endpoint: solubility (mg/mL)

compound	recorded measurement
NC(=O)c1nc[nH]c1O [Compound A, 4-carbamoyl-5-hydroxyimidazole]	25.7

----------
Assay: Solubility in aqueous solutions of surfactants/additives and non-aqueous vehicles (Experimental Example 6)
Type: physicochemical
Settings: ethanol, organic solvent or mixture
recorded endpoint: solubility

compound	recorded measurement
NC(=O)c1nc[nH]c1O [Compound A, 4-carbamoyl-5-hydroxyimidazole]	< 2000 µg/mL

----------
Experiment: Solubility in solutions of basic substances (Experimental Example 7)
Type: physicochemical
Conditions: pH 8.44; 5% borax; pH of solvent 8.44

molecule	solubility [mg/mL]
NC(=O)c1nc[nH]c1O [Compound A, 4-carbamoyl-5-hydroxyimidazole]	22.2
